Attribution: patent US12473299B2

Tested on: single-stranded oligo RNA 5′-r(AGCAAAAAACGC)-3′ (SEQ ID No. 18)
test: Double-strand forming ability (Tm) with single-stranded oligo RNA
Type: binding
conditionDetails: oligonucleotide 4 μM, 10 mM phosphate buffer pH 7.2, 100 mM NaCl; mean of three measurements
Lab note: compare ssRNA Tm against 50 °C. Equal or greater, write yes (1). Smaller, write no (0).

INSERT INTO results (substance, answerlabel) VALUES
  ('5′-d(GCG222222GCT)-3′ (DNA GCGTTTTTTGCT; BANA-T2 modified nucleotides; modified_base (4)..(9) t = BANA-t2) [5′-GCG222222GCT-3′, 2=Compound 19 (BANA-T2)]', 'yes (1)'),
  ('5′-d(GCGTTTTTTGCT)-3′ (DNA, backbone and methylation of C not given here) [native DNA (dT), reference compound]', 'no (0)'),
  ('5′-d(GCGTT1TTTGCT)-3′ (DNA GCGTTTTTTGCT; BANA-T1 modified nucleotide; modified_base (6)..(6) t = BANA-t1) [5′-GCGTT1TTTGCT-3′]', 'no (0)');

QUERY: Does the reported ssRNA Tm for 5′-d(GCG111111GCT)-3′ (DNA GCGTTTTTTGCT; BANA-T1 modified nucleotides; modified_base (4)..(9) ANA-t1) [5′-GCG111111GCT-3′] fall at or above the 50 °C mark?
RESULT: yes (1)
